Target Or System: T1, recombinant human Ang2-FLD (human, UniProt O15123 275-496, limits assumed)
T1 construct: domain: FLD; not used
T1 sequence (looked up): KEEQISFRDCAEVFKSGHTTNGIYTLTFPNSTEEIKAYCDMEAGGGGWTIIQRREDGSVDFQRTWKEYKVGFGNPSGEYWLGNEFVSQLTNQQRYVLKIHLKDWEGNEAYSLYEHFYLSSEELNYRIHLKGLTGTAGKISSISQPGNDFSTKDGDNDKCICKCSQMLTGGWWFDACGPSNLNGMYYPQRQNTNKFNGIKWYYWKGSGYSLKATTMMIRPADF
Assay Notes: ProteOn off-rate assay, periplasmic extract 1:10 over coated human Ang2-FLD
Quantity Measured: fold improvement (off-rate against VHH 00027) (fold)
Reply numerically in fold, unit not repeated.

binder="VHH 64G02 (VHH, periplasmic extract; not shown: C-terminal c-myc tag and His6 tag) VHH: EVQLVESGGGLVQAGGSLRLSCAISGFTLVDYAIGWFRQAPGKEREGVSSIRDNDGSTYYADSVKGRFIISSDNDKNTVYLQMNSLKPEDTAVYYCAAVPAGRLRFGEQWYPIYEYDAWGQGTLVTVSS" reading=9.4

Fill blank: measured fold improvement (off-rate against VHH 00027) of the binder VHH 65F01 (VHH, periplasmic extract; not shown: C-terminal c-myc tag and His6 tag) VHH: EVQLVESGGGLVQAGGSLRLSCAASGLTLDDYAIGWFRQAPGKEREGVSSIRDNDGSRYYADSVKGRFTISSDNDKNTVYLQMNSLKPEDTAVYYCAAVPAGRLRFGEQWYPIYEYDAWGQGTLVTVSS is ____.
8.1
